System: Enterococcus sp.
Assay: in vitro antibacterial evaluation, MIC by broth dilution
Format: cell-based
Settings: strain GC 4553; broth dilution, 18 hours at 35° C.
Property: MIC Enterococcus faecalis (GC 4553) (µg/mL)
Reply with just the number (in µg/mL).

MIC Enterococcus faecalis (GC 4553) reading for CC(c1ccccc1)C1NC(=O)CNC(=O)C(CO)NC(=O)C(C(O)C2CNC(=N)N2C2OC(CO)C(O)C(O)C2O)NC(=O)C(C(O)C2CNC(=N)N2)NC(=O)C(Cc2ccc(OC3OC(CO)C(OC4OC5COC(c6cccc(Oc7ccccc7)c6)OC5C(O)C4O)C(O)C3O)cc2)NC1=O (centres unmarked) [Example 170] : 4

====

// values below are reported MIC Staphylococcus aureus (GC 1131)
Tested on: Staphylococcus sp.
Experiment: in vitro antibacterial evaluation, MIC by broth dilution
Assay type: cell-based
Details: broth dilution, 18 hours at 35° C.; strain GC 1131
Report the value in µg/mL with no unit label.

Consider the reported MIC Staphylococcus aureus (GC 1131) for these compounds:
compound="Cc1ccc(COCC2OC(OC3C(CO)OC(Oc4ccc(CC5NC(=O)C(C(C)c6ccccc6)NC(=O)CNC(=O)C(CO)NC(=O)C(C(O)C6CNC(=N)N6C6OC(CO)C(O)C(O)C6O)NC(=O)C(C(O)C6CNC(=N)N6)NC5=O)cc4)C(O)C3O)C(O)C(O)C2O)cc1 (centres unmarked)" measurement=2
compound="CC(c1ccccc1)C1NC(=O)CNC(=O)C(CO)NC(=O)C(C(O)C2CNC(=N)N2C2OC(CO)C(O)C(O)C2O)NC(=O)C(C(O)C2CNC(=N)N2)NC(=O)C(Cc2ccc(OC3OC(CO)C(OC4OC(CO)C(O)C(OCc5ccc(OCc6ccccc6)cc5)C4O)C(O)C3O)cc2)NC1=O (centres unmarked) [Example 231c]" measurement=2

Now look at this entry.
Record COc1ccc(COCC2OC(OC3C(CO)OC(Oc4ccc(CC5NC(=O)C(C(C)c6ccccc6)NC(=O)CNC(=O)C(CO)NC(=O)C(C(O)C6CNC(=N)N6C6OC(CO)C(O)C(O)C6O)NC(=O)C(C(O)C6CNC(=N)N6)NC5=O)cc4)C(O)C3O)C(O)C(O)C2O)c2ccccc12 (centres unmarked) / Staphylococcus sp., MIC Staphylococcus aureus (GC 1131) recorded as 4

====

Test system: Enterococcus sp.
Assay: in vitro antibacterial evaluation, MIC by broth dilution
Type: cell-based
Conditions: broth dilution, 18 hours at 35° C.
Property: MIC Enterococcus faecalis (GC 4552) (µg/mL)
The reply should be a number in µg/mL, with the unit left off.

Answered examples (2):
compound="COc1ccc(COCC2OC(OC3C(CO)OC(Oc4ccc(CC5NC(=O)C(C(C)c6ccccc6)NC(=O)CNC(=O)C(CO)NC(=O)C(C(O)C6CNC(=N)N6C6OC(CO)C(O)C(O)C6O)NC(=O)C(C(O)C6CNC(=N)N6)NC5=O)cc4)C(O)C3O)C(O)C(O)C2O)cc1 (stereo not shown)" measurement=32
compound="COc1ccc(COCC2OC(OC3C(CO)OC(Oc4ccc(CC5NC(=O)C(C(C)c6ccccc6)NC(=O)CNC(=O)C(CO)NC(=O)C(C(O)C6CNC(=N)N6C6OC(CO)C(O)C(O)C6O)NC(=O)C(C(O)C6CNC(=N)N6)NC5=O)cc4)C(O)C3O)C(O)C(O)C2O)c2ccccc12 (stereo not shown)" measurement=16

# evaluate next
The measured MIC Enterococcus faecalis (GC 4552) that CC(c1ccccc1)C1NC(=O)CNC(=O)C(CO)NC(=O)C(CC2CNC(=N)N2C2OC(CO)C(O)C(O)C2O)NC(=O)C(CC2CNC(=N)N2)NC(=O)C(Cc2ccc(OC3OC(CO)C(OC4OC5COC6(OC5C(O)C4O)C4CC5CC(C4)CC6C5)C(O)C3O)cc2)NC1=O (stereo not shown) showed for Enterococcus sp. is 8

====

# MIC Enterococcus faecalis (GC 4554) listing for each entry below
System: Enterococcus sp.
Assay: in vitro antibacterial evaluation, MIC by broth dilution
Assay type: cell-based
Details: broth dilution, 18 hours at 35° C.
Reply with just the number (in µg/mL).

compound="CC(c1ccccc1)C1NC(=O)CNC(=O)C(CO)NC(=O)C(C(O)C2CNC(=N)N2C2OC(CO)C(O)C(O)C2O)NC(=O)C(C(O)C2CNC(=N)N2)NC(=O)C(Cc2ccc(OC3OC(CO)C(OC4OC5COC6(CC7CCC6(C)C7(C)C)OC5C(O)C4O)C(O)C3O)cc2)NC1=O (stereo not shown) [Example 215]" measurement=1
compound="CC(c1ccccc1)C1NC(=O)CNC(=O)C(CO)NC(=O)C(C(O)C2CNC(=N)N2C2OC(CO)C(O)C(O)C2O)NC(=O)C(C(O)C2CNC(=N)N2)NC(=O)C(Cc2ccc(OC3OC(CO)C(OC4OC5COC(c6ccc(C(=O)c7ccc(I)cc7)cc6)OC5C(O)C4O)C(O)C3O)cc2)NC1=O (stereo not shown) [Example 186]" measurement=2

Switching to the query record.
Measured MIC Enterococcus faecalis (GC 4554), COc1ccc(COCC2OC(OC3C(CO)OC(Oc4ccc(CC5NC(=O)C(C(C)c6ccccc6)NC(=O)CNC(=O)C(CO)NC(=O)C(C(O)C6CNC(=N)N6C6OC(CO)C(O)C(O)C6O)NC(=O)C(C(O)C6CNC(=N)N6)NC5=O)cc4)C(O)C3O)C(O)C(O)C2O)cc1F (stereo not shown) [Example 237] : 32

====

Test system: Staphylococcus sp.
Experiment: in vitro antibacterial evaluation, MIC by broth dilution
Type: cell-based
Settings: broth dilution, 18 hours at 35° C., inoculum 5×10^5 CFU/mL; strain GC 1131
Property: MIC Staphylococcus aureus (GC 1131) (µg/mL)
The reply should be a number in µg/mL, with the unit left off.

Illustrative cases are given below, each with its answer.
compound="CSc1ccc(C2OCC3OC(OC4C(CO)OC(Oc5ccc(CC6NC(=O)C(C(C)c7ccccc7)NC(=O)CNC(=O)C(CO)NC(=O)C(C(O)C7CNC(=N)N7C7OC(CO)C(O)C(O)C7O)NC(=O)C(C(O)C7CNC(=N)N7)NC6=O)cc5)C(O)C4O)C(O)C(O)C3O2)cc1[N+](=O)[O-] (stereo not shown) [Example 168]" units=µg/mL measurement=1
compound="COc1ccc(Oc2cccc(C3OCC4OC(OC5C(CO)OC(Oc6ccc(CC7NC(=O)C(C(C)c8ccccc8)NC(=O)CNC(=O)C(CO)NC(=O)C(C(O)C8CNC(=N)N8C8OC(CO)C(O)C(O)C8O)NC(=O)C(C(O)C8CNC(=N)N8)NC7=O)cc6)C(O)C5O)C(O)C(O)C4O3)c2)cc1 (stereo not shown) [Example 180]" units=µg/mL measurement=2
compound="COC1CCC2(C)C(CCC3C2CCC2(C)C(C(C)CCC4OCC5OC(OC6C(CO)OC(Oc7ccc(CC8NC(=O)C(C(C)c9ccccc9)NC(=O)CNC(=O)C(CO)NC(=O)C(C(O)C9CNC(=N)N9C9OC(CO)C(O)C(O)C9O)NC(=O)C(C(O)C9CNC(=N)N9)NC8=O)cc7)C(O)C6O)C(O)C(O)C5O4)CCC32)C1 (stereo not shown) [Example 130]" units=µg/mL measurement=32

For the next question, use this compound.
Entry CCCCCCCC1OCC2OC(OC3C(CO)OC(Oc4ccc(CC5NC(=O)C(C(C)c6ccccc6)NC(=O)CNC(=O)C(CO)NC(=O)C(C(O)C6CNC(=N)N6C6OC(CO)C(O)C(O)C6O)NC(=O)C(C(O)C6CNC(=N)N6)NC5=O)cc4)C(O)C3O)C(O)C(O)C2O1 (stereo not shown) [Example 109] under Staphylococcus sp. had MIC Staphylococcus aureus (GC 1131) of 1

====

System: Enterococcus sp.
Test: in vitro antibacterial evaluation, MIC by broth dilution
Assay type: cell-based
Details: Enterococcus faecium (GC 4556); broth dilution, 18 hours at 35° C.
Property: MIC Enterococcus faecium (GC 4556) (µg/mL)
Give the value in µg/mL but do not write µg/mL after it.

Some compounds with recorded MIC Enterococcus faecium (GC 4556):
compound="Cc1cc(C2OCC3OC(OC4C(CO)OC(Oc5ccc(CC6NC(=O)C(C(C)c7ccccc7)NC(=O)CNC(=O)C(CO)NC(=O)C(C(O)C7CNC(=N)N7C7OC(CO)C(O)C(O)C7O)NC(=O)C(C(O)C7CNC(=N)N7)NC6=O)cc5)C(O)C4O)C(O)C(O)C3O2)ccc1[N+](=O)[O-] (stereo not shown)" measurement=32
compound="CCCCCCCN1CC(C(O)C2NC(=O)C(C(O)C3CNC(=N)N3)NC(=O)C(Cc3ccc(OC4OC(CO)C(OC5OC6COC7(OC6C(O)C5O)C5CC6CC(C5)CC7C6)C(O)C4O)cc3)NC(=O)C(C(C)c3ccccc3)NC(=O)CNC(=O)C(CO)NC2=O)N(C2OC(CO)C(O)C(O)C2O)C1=N (stereo not shown)" measurement=4

Form field MIC Enterococcus faecium (GC 4556), entry CC(c1ccccc1)C1NC(=O)CNC(=O)C(CO)NC(=O)C(C(O)C2CN(CCCCCCCCCCCCO)C(=N)N2C2OC(CO)C(O)C(O)C2O)NC(=O)C(C(O)C2CNC(=N)N2)NC(=O)C(Cc2ccc(OC3OC(CO)C(OC4OC(CO)C(O)C(O)C4O)C(O)C3O)cc2)NC1=O (stereo not shown) : 128
